Data origin, for the record: the supplement of paper PMC3334620

tgt: Stb5 (UniProt P38699)
Sequence: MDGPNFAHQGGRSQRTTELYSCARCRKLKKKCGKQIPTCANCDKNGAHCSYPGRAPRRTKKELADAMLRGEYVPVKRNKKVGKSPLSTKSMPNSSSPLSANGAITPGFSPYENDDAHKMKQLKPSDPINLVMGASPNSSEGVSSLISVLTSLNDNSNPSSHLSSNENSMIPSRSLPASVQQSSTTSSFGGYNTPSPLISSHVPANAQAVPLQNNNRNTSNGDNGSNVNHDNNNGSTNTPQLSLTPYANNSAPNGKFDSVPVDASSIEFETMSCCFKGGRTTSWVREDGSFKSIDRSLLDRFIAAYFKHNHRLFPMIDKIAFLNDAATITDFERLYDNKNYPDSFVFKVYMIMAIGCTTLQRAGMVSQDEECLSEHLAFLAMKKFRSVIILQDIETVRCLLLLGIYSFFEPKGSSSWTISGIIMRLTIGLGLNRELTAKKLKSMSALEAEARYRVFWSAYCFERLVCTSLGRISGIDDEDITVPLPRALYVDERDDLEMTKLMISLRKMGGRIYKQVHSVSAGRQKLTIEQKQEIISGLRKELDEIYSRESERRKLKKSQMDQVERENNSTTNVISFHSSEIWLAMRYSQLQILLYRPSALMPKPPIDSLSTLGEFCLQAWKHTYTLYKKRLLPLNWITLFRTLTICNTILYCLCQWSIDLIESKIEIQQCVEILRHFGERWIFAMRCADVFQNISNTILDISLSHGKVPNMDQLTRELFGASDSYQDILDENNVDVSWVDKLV
procedure.summary: PBM E-score (8-mer binding enrichment) (E-score (-0.5 to 0.5)); higher = stronger / more preferred TF binding
measurement.setup: protein concentration: 200 nM; construct: GST-full length
Over roughly 33,000 sequences, “E-score (-0.5 to 0.5)” has its median near -0.054; the highest 2% begin near 0.35. For the sample, the highest values were picked, then their nearest neighbours and some sequences at random.
Reported PBM E-score values for a set of sequences

Answered examples (8):
entry_sequence=ATCGGCAT result=0.363
entry_sequence=CAGTTATG result=0.143
entry_sequence=GAGCCAGC result=0.00015
entry_sequence=TGCCTCCA result=-0.237
entry_sequence=CAAAAGAG result=-0.072
entry_sequence=CGCGGCTA result=0.3
entry_sequence=GCAAAGGC result=0.115
entry_sequence=GTCGGCAA result=0.276

Record summary for AGGTGCGC : reported PBM E-score = 0.0592

---

Reported PBM E-score values for a set of sequences
tgt: Stb5 (UniProt P38699)
Sequence: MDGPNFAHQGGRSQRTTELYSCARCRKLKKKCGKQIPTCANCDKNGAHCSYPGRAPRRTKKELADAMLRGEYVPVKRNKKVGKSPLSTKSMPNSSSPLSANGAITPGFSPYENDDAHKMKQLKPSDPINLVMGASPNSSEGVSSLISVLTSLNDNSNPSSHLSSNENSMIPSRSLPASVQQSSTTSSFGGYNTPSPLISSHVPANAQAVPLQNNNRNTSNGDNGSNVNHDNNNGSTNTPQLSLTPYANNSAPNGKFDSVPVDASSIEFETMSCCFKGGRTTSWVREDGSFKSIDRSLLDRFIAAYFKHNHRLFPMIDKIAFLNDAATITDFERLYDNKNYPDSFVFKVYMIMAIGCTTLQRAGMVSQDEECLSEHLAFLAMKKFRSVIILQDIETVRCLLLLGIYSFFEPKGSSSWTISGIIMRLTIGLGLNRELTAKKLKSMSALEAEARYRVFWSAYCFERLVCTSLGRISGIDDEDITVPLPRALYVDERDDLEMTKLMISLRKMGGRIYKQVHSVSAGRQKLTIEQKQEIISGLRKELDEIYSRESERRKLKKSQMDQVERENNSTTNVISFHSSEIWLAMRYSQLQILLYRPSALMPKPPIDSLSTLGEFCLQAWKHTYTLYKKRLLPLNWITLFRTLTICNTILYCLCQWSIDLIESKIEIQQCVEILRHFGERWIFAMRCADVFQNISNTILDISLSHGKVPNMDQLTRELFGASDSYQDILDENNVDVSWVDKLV
procedure.summary: PBM E-score (8-mer binding enrichment) (E-score (-0.5 to 0.5)); higher = stronger / more preferred TF binding
measurement.setup: protein concentration: 200 nM; construct: GST-full length
Whole data set: some 33,000 sequences, median “E-score (-0.5 to 0.5)” near -0.054, cut for the highest 2% near 0.35. The sample holds the highest values, similar sequences and a random draw of the others, so the mix is not that of the screen.
Could you keep your reply to the number by itself?

Answered examples (3):
entry_sequence=GGCGGGGA tgt="Stb5 (UniProt P38699)" numeric_readout=0.366
entry_sequence=AACTCTAG tgt="Stb5 (UniProt P38699)" numeric_readout=-0.33
entry_sequence=ATGAGCTC tgt="Stb5 (UniProt P38699)" numeric_readout=-0.262

The reported Stb5 (UniProt P38699) PBM E-score of ACGGAGAC is 0.272

The reported Stb5 (UniProt P38699) PBM E-score of AGACCCCC is -0.165

The reported Stb5 (UniProt P38699) PBM E-score of AATATTAA is 0.0579

The reported Stb5 (UniProt P38699) PBM E-score of ATTATTGG is 0.0592

The reported Stb5 (UniProt P38699) PBM E-score of ATACCCCA is -0.0468

---

tgt: Stb5 (UniProt P38699)
Sequence: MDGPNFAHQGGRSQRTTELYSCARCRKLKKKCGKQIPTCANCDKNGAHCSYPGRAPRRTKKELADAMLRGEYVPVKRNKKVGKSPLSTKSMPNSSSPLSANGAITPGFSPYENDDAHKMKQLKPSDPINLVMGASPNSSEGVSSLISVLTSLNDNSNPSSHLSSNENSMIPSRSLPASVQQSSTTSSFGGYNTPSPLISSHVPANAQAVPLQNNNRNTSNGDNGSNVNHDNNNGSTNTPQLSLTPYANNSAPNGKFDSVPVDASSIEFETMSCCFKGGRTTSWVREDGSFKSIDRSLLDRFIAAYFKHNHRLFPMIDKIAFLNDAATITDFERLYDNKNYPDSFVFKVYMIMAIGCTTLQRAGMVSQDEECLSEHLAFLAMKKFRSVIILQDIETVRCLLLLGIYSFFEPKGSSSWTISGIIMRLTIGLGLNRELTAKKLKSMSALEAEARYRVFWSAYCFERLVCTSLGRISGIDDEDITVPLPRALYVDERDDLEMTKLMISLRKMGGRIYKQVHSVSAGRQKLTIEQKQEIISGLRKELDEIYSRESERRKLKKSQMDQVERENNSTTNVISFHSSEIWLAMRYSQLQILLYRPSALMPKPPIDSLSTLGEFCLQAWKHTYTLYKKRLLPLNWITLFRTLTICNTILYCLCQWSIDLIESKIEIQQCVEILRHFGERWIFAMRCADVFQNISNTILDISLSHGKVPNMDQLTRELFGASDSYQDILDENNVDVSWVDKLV
procedure.summary: PBM E-score (8-mer binding enrichment) (E-score (-0.5 to 0.5)); higher = stronger / more preferred TF binding
measurement.setup: protein concentration: 200 nM; construct: GST-full length
Whole data set: some 33,000 sequences, median “E-score (-0.5 to 0.5)” near -0.054, cut for the highest 2% near 0.35. The sample as a whole holds a higher share of the highest values than the screen did.
metric: PBM E-score
Could you keep your reply to the number by itself?

Answered examples (6):
entry_sequence=ACACCGTG tgt="Stb5 (UniProt P38699)" numeric_readout=0.416
entry_sequence=ACACCGTC tgt="Stb5 (UniProt P38699)" numeric_readout=0.424
entry_sequence=ACAGTAAT tgt="Stb5 (UniProt P38699)" numeric_readout=-0.154
entry_sequence=ACGGCAAG tgt="Stb5 (UniProt P38699)" numeric_readout=-0.121
entry_sequence=ACACCGTA tgt="Stb5 (UniProt P38699)" numeric_readout=0.346
entry_sequence=AACCGCAC tgt="Stb5 (UniProt P38699)" numeric_readout=0.00707

Record summary for GTTATCTA : reported PBM E-score = -0.00767

Record summary for ACGGCACT : reported PBM E-score = 0.427

Record summary for TATAGGCA : reported PBM E-score = -0.262

---

tgt: Stb5 (UniProt P38699)
Sequence: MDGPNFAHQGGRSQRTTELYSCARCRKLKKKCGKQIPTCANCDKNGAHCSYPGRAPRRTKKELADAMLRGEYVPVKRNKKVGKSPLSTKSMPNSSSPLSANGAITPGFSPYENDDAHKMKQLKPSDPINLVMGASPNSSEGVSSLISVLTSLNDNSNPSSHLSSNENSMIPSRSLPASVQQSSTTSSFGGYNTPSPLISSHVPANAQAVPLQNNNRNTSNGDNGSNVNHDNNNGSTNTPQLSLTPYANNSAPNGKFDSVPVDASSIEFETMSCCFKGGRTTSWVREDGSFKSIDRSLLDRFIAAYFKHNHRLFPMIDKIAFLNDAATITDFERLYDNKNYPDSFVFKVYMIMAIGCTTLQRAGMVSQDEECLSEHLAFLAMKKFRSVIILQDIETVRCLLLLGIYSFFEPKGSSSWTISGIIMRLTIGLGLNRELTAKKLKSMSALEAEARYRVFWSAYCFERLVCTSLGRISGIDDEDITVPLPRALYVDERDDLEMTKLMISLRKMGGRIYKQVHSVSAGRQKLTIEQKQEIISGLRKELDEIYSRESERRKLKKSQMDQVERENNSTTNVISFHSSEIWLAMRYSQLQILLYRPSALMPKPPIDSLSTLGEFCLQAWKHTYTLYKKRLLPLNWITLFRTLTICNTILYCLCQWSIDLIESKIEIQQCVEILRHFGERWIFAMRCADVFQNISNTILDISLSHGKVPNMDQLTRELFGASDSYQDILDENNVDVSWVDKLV
procedure.summary: PBM E-score (8-mer binding enrichment) (E-score (-0.5 to 0.5)); higher = stronger / more preferred TF binding
measurement.setup: protein concentration: 200 nM; construct: GST-full length
The full ranking holds about 33,000 sequences; the median of “E-score (-0.5 to 0.5)” is about -0.054, and the highest 2% start at about 0.35. This excerpt belongs to a sample that is enriched for the highest values.
Would you please tag the item True when its PBM E-score is 0.004 or above, and False when it is below?

Reference set (5 entries):
entry_sequence=TATACTCA assigned_class=False
entry_sequence=GGTGATCA assigned_class=True
entry_sequence=AATATATT assigned_class=True
entry_sequence=CGTTCGGA assigned_class=True
entry_sequence=AAACTGAT assigned_class=False

Assess whether reported PBM E-score for CCTTGGTA sits at 0.004 or higher.
True

Assess whether reported PBM E-score for TTCTCAAA sits at 0.004 or higher.
False
